meta.source: the supplement of paper PMC9112550

Tested on: Escherichia coli TOP10;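 further: peptides expressed intracellularly from a pBAD plasmid library in pooled LB shake-flask culture, induced with 0.3% L-arabinose, DNA abundance read by NGS, three biological replicates, DESeq2 with apeglm shrinkage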
Assay info: shrunken log2 fold change of peptide-encoding DNA abundance (4.5 h post-induction vs induction); higher = less antimicrobial activity (less host growth inhibition)
Particulars: time post-induction: 4.5 h; library: site-saturation at positions 5, 18, 19, 20
shrunken log2 fold change by entry:
Measured metric: shrunken log2 fold change

In [3]: df
Out[3]:
        biopolymer_sequence             test_target  test_result
 0  RRIRYRPPRLPRPRPRPLPAPRP  Escherichia coli TOP10       -0.165
 1  RRIRFRPPRLPRPRPRPRFRPRP  Escherichia coli TOP10      -0.0973
 2  RRIRNRPPRLPRPRPRPTDRPRP  Escherichia coli TOP10       0.0372
 3  RRIRSRPPRLPRPRPRPHSSPRP  Escherichia coli TOP10        0.171
 4  RRIRHRPPRLPRPRPRPSPSPRP  Escherichia coli TOP10      0.00467
 5  RRIRKRPPRLPRPRPRPDNCPRP  Escherichia coli TOP10      -0.0122
 6  RRIRDRPPRLPRPRPRPCALPRP  Escherichia coli TOP10      -0.0616
 7  RRIRYRPPRLPRPRPRPKVPPRP  Escherichia coli TOP10       0.0215
 8  RRIRCRPPRLPRPRPRPINQPRP  Escherichia coli TOP10       -0.485
 9  RRIRIRPPRLPRPRPRPHNNPRP  Escherichia coli TOP10       -0.313
10  RRIRWRPPRLPRPRPRPDGWPRP  Escherichia coli TOP10         1.12
11  RRIRMRPPRLPRPRPRPSRYPRP  Escherichia coli TOP10       -0.173
12  RRIRVRPPRLPRPRPRPISSPRP  Escherichia coli TOP10       -0.136
13  RRIRQRPPRLPRPRPRPGIRPRP  Escherichia coli TOP10        0.346
14  RRIRKRPPRLPRPRPRPSWNPRP  Escherichia coli TOP10        -0.15
15  RRIRSRPPRLPRPRPRPPRDPRP  Escherichia coli TOP10         1.34
16  RRIRVRPPRLPRPRPRPYLYPRP  Escherichia coli TOP10        -1.05
17  RRIRGRPPRLPRPRPRPMDNPRP  Escherichia coli TOP10         0.12
18  RRIRERPPRLPRPRPRPKGHPRP  Escherichia coli TOP10        0.092
19  RRIRNRPPRLPRPRPRPYYAPRP  Escherichia coli TOP10      -0.0919
20  RRIRERPPRLPRPRPRPDGPPRP  Escherichia coli TOP10        0.115
21  RRIRTRPPRLPRPRPRPLRVPRP  Escherichia coli TOP10        0.767
22  RRIRKRPPRLPRPRPRPWEQPRP  Escherichia coli TOP10       0.0133
23  RRIRDRPPRLPRPRPRPINNPRP  Escherichia coli TOP10        -1.21
24  RRIRRRPPRLPRPRPRPAESPRP  Escherichia coli TOP10        0.256
25  RRIRERPPRLPRPRPRPRMRPRP  Escherichia coli TOP10        0.506
26  RRIRGRPPRLPRPRPRPFSTPRP  Escherichia coli TOP10      -0.0796
27  RRIRERPPRLPRPRPRPSWCPRP  Escherichia coli TOP10      -0.0728
28  RRIRSRPPRLPRPRPRPPRQPRP  Escherichia coli TOP10        0.389
29  RRIRERPPRLPRPRPRPFKIPRP  Escherichia coli TOP10      -0.0307
30  RRIRYRPPRLPRPRPRPYVVPRP  Escherichia coli TOP10        -0.24
31  RRIRCRPPRLPRPRPRPQFDPRP  Escherichia coli TOP10       -0.211
32  RRIRWRPPRLPRPRPRPMTDPRP  Escherichia coli TOP10       0.0543
33  RRIRERPPRLPRPRPRPGNNPRP  Escherichia coli TOP10       -0.426
34  RRIRHRPPRLPRPRPRPPRIPRP  Escherichia coli TOP10       0.0175
35  RRIRLRPPRLPRPRPRPSQEPRP  Escherichia coli TOP10      -0.0518
36  RRIRFRPPRLPRPRPRPRIMPRP  Escherichia coli TOP10       -0.624
37  RRIRDRPPRLPRPRPRPANDPRP  Escherichia coli TOP10       -0.176
38  RRIRSRPPRLPRPRPRPYCAPRP  Escherichia coli TOP10       -0.698
39  RRIRVRPPRLPRPRPRPCNNPRP  Escherichia coli TOP10       0.0786
40  RRIRKRPPRLPRPRPRPSTHPRP  Escherichia coli TOP10        -0.17
41  RRIRKRPPRLPRPRPRPRLMPRP  Escherichia coli TOP10        0.989
42  RRIRNRPPRLPRPRPRPPWVPRP  Escherichia coli TOP10      -0.0522
43  RRIRVRPPRLPRPRPRPELQPRP  Escherichia coli TOP10      -0.0355
44  RRIRARPPRLPRPRPRPMDQPRP  Escherichia coli TOP10       -0.194
45  RRIRVRPPRLPRPRPRPDVKPRP  Escherichia coli TOP10      -0.0375
46  RRIRARPPRLPRPRPRPGDCPRP  Escherichia coli TOP10        0.366
47  RRIRMRPPRLPRPRPRPFAFPRP  Escherichia coli TOP10       0.0579
48  RRIRERPPRLPRPRPRPCPWPRP  Escherichia coli TOP10       -0.278
49  RRIRPRPPRLPRPRPRPYFWPRP  Escherichia coli TOP10       -0.137
50  RRIRERPPRLPRPRPRPCWGPRP  Escherichia coli TOP10       0.0218
51  RRIRYRPPRLPRPRPRPFQPPRP  Escherichia coli TOP10       -0.375
52  RRIRQRPPRLPRPRPRPLDSPRP  Escherichia coli TOP10     -0.00448
53  RRIRLRPPRLPRPRPRPGENPRP  Escherichia coli TOP10     -0.00192
54  RRIRQRPPRLPRPRPRPKLWPRP  Escherichia coli TOP10      -0.0821
55  RRIRRRPPRLPRPRPRPWLSPRP  Escherichia coli TOP10       0.0437
56  RRIRARPPRLPRPRPRPVIMPRP  Escherichia coli TOP10        -0.42
57  RRIRNRPPRLPRPRPRPQQDPRP  Escherichia coli TOP10        -0.38
58  RRIRDRPPRLPRPRPRPDSGPRP  Escherichia coli TOP10     -0.00436
59  RRIRKRPPRLPRPRPRPQFRPRP  Escherichia coli TOP10       0.0319
60  RRIRHRPPRLPRPRPRPDLNPRP  Escherichia coli TOP10        0.015
61  RRIRSRPPRLPRPRPRPHLCPRP  Escherichia coli TOP10       -0.121
62  RRIRQRPPRLPRPRPRPKTNPRP  Escherichia coli TOP10       -0.117
